- Experimental Target: AAK1 (Homo sapiens)
- Construct: HA; expressed in transfected cells; host or cells: HEK293F
- Protocol Description: HEK281 cell-based assay (phospho-mu2 Western blot in transfected HEK293F cells)
- Condition Info: 3 hours incubation, read-out: CBA IC50
pIC50: −log10 of the molar value.
Provide the reported pIC50 of each item.

stdin: Give the measured pIC50 of CC(C)SC(=O)N1CCN(c2ccc3ncc(-c4ccccc4)n3n2)CC1 .
stdout: ≥ 6.00

stdin: Please give the result for CC(C)CC(=O)N1CCC[C@H]1CNc1ccc2ncc(Br)n2n1 too.
stdout: ≥ 7.00

stdin: Could you do the same for COc1cccc(-c2cnc3ccc(NCCN(C)C(=O)OC(C)(C)C)nn23)c1 , please?
stdout: ≥ 7.00

stdin: COc1ccc(CCNc2ccc3ncc(-c4ccc(CN)cc4)n3n2)cc1 , same question.
stdout: ≥ 7.00

====

- Experimental Target: AAK1 (Homo sapiens, UniProt Q2M2I8)
- Construct: HA; expressed in transfected cells; host or cells: HEK293F
- Sequence (Q2M2I8 1-863 isoform Q2M2I8-2): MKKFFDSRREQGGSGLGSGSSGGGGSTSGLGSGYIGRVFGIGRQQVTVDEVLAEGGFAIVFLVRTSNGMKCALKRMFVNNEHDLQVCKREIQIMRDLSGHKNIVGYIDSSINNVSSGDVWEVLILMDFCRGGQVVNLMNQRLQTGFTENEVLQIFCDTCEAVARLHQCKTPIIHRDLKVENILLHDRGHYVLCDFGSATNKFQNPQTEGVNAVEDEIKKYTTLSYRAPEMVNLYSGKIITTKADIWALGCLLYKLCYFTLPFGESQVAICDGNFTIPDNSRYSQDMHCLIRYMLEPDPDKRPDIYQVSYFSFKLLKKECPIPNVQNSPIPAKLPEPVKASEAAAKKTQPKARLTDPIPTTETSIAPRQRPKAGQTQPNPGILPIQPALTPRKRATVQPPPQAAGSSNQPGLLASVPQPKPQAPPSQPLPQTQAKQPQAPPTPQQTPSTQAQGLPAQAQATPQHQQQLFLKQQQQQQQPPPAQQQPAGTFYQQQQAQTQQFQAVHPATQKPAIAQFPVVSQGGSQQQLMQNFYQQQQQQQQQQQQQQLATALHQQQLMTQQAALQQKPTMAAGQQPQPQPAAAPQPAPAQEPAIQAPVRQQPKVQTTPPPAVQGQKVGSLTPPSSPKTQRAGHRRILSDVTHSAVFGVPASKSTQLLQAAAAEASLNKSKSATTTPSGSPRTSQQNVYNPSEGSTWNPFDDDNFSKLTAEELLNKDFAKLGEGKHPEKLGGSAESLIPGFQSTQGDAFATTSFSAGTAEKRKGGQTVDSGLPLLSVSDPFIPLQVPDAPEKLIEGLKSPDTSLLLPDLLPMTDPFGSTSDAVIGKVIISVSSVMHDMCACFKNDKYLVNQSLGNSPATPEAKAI
- Protocol Description: P81 filter plate assay
- Format: biochemical
- Condition Info: full-length human AAK1, Mu2 substrate
Measured Parameter: IC50

stdin: Dear colleague, I am looking for the recorded IC50 of the following compound: COc1ccccc1-c1cnc2ccc(N3CCN(C(=O)N4CCCCC4)CC3)nn12
stdout: ≤ 10 nM

stdin: Follow-up item: CN(C(=O)CC(F)(F)F)[C@H]1CCN(c2ccc3ncc(-c4cccnc4O)n3n2)C1
stdout: ≤ 10 nM

stdin: Then this compound: CCCC(=O)N(C)[C@H]1CCN(c2ccc3ncc(-c4cccnc4O)n3n2)C1
stdout: ≤ 100 nM

stdin: Let us now turn to COCCOC(=O)N1CCN(c2ccc3ncc(-c4cccnc4OC)n3n2)CC1
stdout: ≤ 10 nM

stdin: Item: CC(C)(C)OC(=O)N1CCN(c2ccc3ncc(I)n3n2)CC1
stdout: ≤ 10 nM

stdin: And what about the compound COc1ncccc1-c1cnc2ccc(NC[C@@H]3CCCN3C(=O)OC(C)C)nn12 ?
stdout: ≤ 10 nM

stdin: Also COc1ncc(C)cc1-c1cnc2ccc(N3CC[C@H](N(C)C(=O)OC(C)C)C3)nn12 , if possible.
stdout: ≤ 10 nM

stdin: Also Cc1cccc(-c2cnc3ccc(NC[C@@H]4CCCN4C(=O)CC(C)C)nn23)c1 ?
stdout: ≤ 10 nM

stdin: Next compound up: CC(C)CC(=O)N1CCC[C@H]1CNc1ccc2ncc(-c3ccnc(F)c3)n2n1
stdout: ≤ 10 nM

stdin: And COc1ccccc1-c1cnc2ccc(N3CCN(C(=O)N(C)C(C)C)CC3)nn12 ?
stdout: ≤ 10 nM

stdin: Ok, now O=C(OC1CCOC1)N1CCC[C@H]1CNc1ccc2ncc(-c3ccncc3)n2n1 (some centres unmarked)
stdout: ≤ 10 nM

stdin: Consider next the compound Cc1csc(-c2cnc3ccc(NCCOC4CCCC4)nn23)c1 in the same way.
stdout: ≤ 100 nM

stdin: Could you do the same for CC(C)OC(=O)N1CCC[C@H]1COc1ccc2ncc(-c3cccnc3O)n2n1 , please?
stdout: ≤ 100 nM

stdin: Next compound: O=C(OCC1CC1)N1CCC[C@H]1CNc1ccc2ncc(-c3ccncc3)n2n1
stdout: ≤ 10 nM

====

- Experimental Target: AAK1 (Homo sapiens)
- Construct: HA; expressed in transfected cells; host or cells: HEK293F
- Protocol Description: HEK281 cell-based assay (phospho-mu2 Western blot in transfected HEK293F cells)
- Condition Info: 3 hours incubation, read-out: CBA IC50
Measured Parameter: IC50

stdin: # value lookup — system AAK1 (Homo sapiens), readout IC50, item CC(C)(C)OC(=O)N1CCCC[C@H]1CNc1ccc2ncc(-c3ccc(CN)cc3)n2n1
stdout: ≤ 10 nM

stdin: Okay, and CCc1cnc2ccc(NC[C@@H]3CCCN3C(=O)OC(C)(C)C)nn12 ?
stdout: ≤ 100 nM

stdin: Consider next the compound COc1ncc(C)cc1-c1cnc2ccc(N3CC[C@H](N(C)C(=O)OC(C)C)C3)nn12 in the same way.
stdout: ≤ 100 nM

stdin: And then COCCOC(=O)N1CCN(c2ccc3ncc(-c4cccnc4OC)n3n2)CC1 , what is it?
stdout: ≤ 100 nM

stdin: Do the same for COc1ccccc1-c1cnc2ccc(N3CCN(C(=O)NC(C)C)CC3)nn12 please
stdout: ≤ 1000 nM

stdin: Input CCCCNc1ccc2ncc(-c3ccc([C@H]4CCCN4)cc3)n2n1
stdout: ≤ 1000 nM

stdin: Now try COc1cnccc1-c1cnc2ccc(NCCN(C(=O)OC(C)C)C(C)C)nn12 .
stdout: ≤ 10 nM

stdin: Can you check CCOC(=O)N(C)[C@H]1CCN(c2ccc3ncc(-c4cc(F)ccc4OC)n3n2)C1 next?
stdout: ≤ 100 nM

stdin: Repeat for the following compound: CC(C)CNc1ccc2ncc(-c3ccc(CN)cc3)n2n1
stdout: ≤ 1000 nM

stdin: Do the same for COC(=O)N1CCC[C@H]1CNc1ccc2ncc(-c3ccc(C4CCCN4)cc3)n2n1 (stereo partly shown) please
stdout: ≤ 100 nM

stdin: Next: CC(C)CCN1C(=O)CC[C@H]1CNc1ccc2ncc(-c3ccc(CN)cc3)n2n1
stdout: ≤ 100 nM

stdin: Now give it for NCc1ccc(-c2cnc3ccc(NCCc4ccccc4)nn23)cc1 too.
stdout: ≤ 1000 nM

stdin: CCOC(=O)N(CCNc1ccc2ncc(-c3ccncc3OC)n2n1)C(C)C ?
stdout: ≤ 10 nM

stdin: Now consider CCOC(=O)N1CCC[C@H]1CNc1ccc2ncc(-c3ccncc3)n2n1 .
stdout: ≤ 100 nM

stdin: Moving on to the next compound: COc1nc(C)ccc1-c1cnc2ccc(N3CCN(C(=O)OC(C)C)CC3)nn12
stdout: ≤ 10 nM

stdin: Ok, now CC1(OC(=O)N2CCC[C@H]2CNc2ccc3ncc(Br)n3n2)CCCC1
stdout: ≤ 1000 nM

stdin: What about this compound? CC(C)(C)CCNc1ccc2ncc(-c3ccc(C(=O)NCCN)cc3)n2n1
stdout: ≤ 1000 nM

stdin: Quick one: NCc1ccc(-c2cnc3ccc(NCCCOC4CCCC4)nn23)cc1
stdout: ≤ 100 nM

stdin: And then CCCCCNc1ccc2ncc(-c3ccc(C4CCCN4)cc3)n2n1 (stereo not shown) , what is it?
stdout: ≤ 1000 nM
